B1: KCTD10 (parent)
chain: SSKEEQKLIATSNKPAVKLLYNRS

- Variants of: B1
- experimental-details: protein stability index of a GFP-peptide fusion (GPS, HEK-293T) (PSI 1-6); higher = more stable;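 also: lentivirally expressed fusions sorted by FACS into six bins by GFP to DsRed ratio, PSI derived from sequencing read proportions per bin multiplied by bin number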
- condition-details: c terminus: a fixed tail appended
Use 4 as the dividing line for protein stability index, with the line itself on the label 1 side and lower values as label 0.

INSERT INTO measurements (mutation_annotation, classification) VALUES
  ('P15F', 'label 0'),
  ('Y21D', 'label 1'),
  ('A10D', 'label 0'),
  ('L19P', 'label 1'),
  ('V17E', 'label 1'),
  ('K3C', 'label 0'),
  ('P15D', 'label 1'),
  ('K7I', 'label 0'),
  ('K14M', 'label 0'),
  ('R23P', 'label 1'),
  ('Q6M', 'label 0'),
  ('L19K', 'label 1'),
  ('E5A', 'label 0'),
  ('E4P', 'label 0'),
  ('K7N', 'label 1'),
  ('K18V', 'label 0'),
  ('K7P', 'label 1'),
  ('R23W', 'label 0'),
  ('S2Q', 'label 1'),
  ('L19M', 'label 1'),
  ('K14C', 'label 0'),
  ('N13M', 'label 0');
